Exercise: for every item that follows, state its recorded fraction ligated.
B1: minF1; the commonest letter at each place (parent)
chain: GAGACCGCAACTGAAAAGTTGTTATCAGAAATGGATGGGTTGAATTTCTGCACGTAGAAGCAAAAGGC

Variants of: B1
Test: fraction ligated after 30 min (ligated reads / total reads); higher = more ligase activity
Conditions: with F1*subA RNA substrate (template-directed ligation), 42 °C
Answers are plain numbers.

Please review the entries below; each comes with its answer.
1. GAGACCGCAACTGAAAAGTTGTTCTCACAAATGGATGGGTTGAATTTCTGCACGTAGAAGCAAAAGGC [A24C G28C] = 0.0343
2. GAGACCGCAACTGAAAAGTTGTTATCAAAAATGTATGGGTTGAATTTCTGCACGTAGAAGCAAAAGGC [G28A G34T] = 0.00746

# input Which fraction ligated is listed for GAGACCGCAACTGAAAAGTTGTTATCAGAAATGGGTCGGTTGAATTTCTGCACGTAGAAGCAAAAGGC [A35G G37C] ?
# output 0.0017

These entries and their values trace back to the supplement of paper PMC6755084.
